assay: in vitro; type: in vitro ADME; details: human, plasma
measured endpoint: half-life (min)
Answer with a number only, understood to be in min.

Exercise: May I ask what half-life has been recorded for "CCCCC[C@H](O)/C=C/[C@H]1O[C@H]2C[C@H](O2)[C@@H]1C/C=C\CCCC(=O)O" ?
Key: 3.9
